These measurements were taken from patent US12435046B2.

# TARGET ENTITY: EGFR V6 (Homo sapiens, UniProt P00533, DEL434-544)
# PROTOCOL: BaF3 cell proliferation assay (CellTiterGlo), EGFR V6
# CONDITIONS: Table B; BaF3 cells, 3 days
pIC50: −log10 of the molar value.
ASSAY READOUT: pIC50

Please give the documented pIC50 of CN1C[C@H]2C[C@@]2(C#Cc2cc3ncnc(Nc4cccc(Cl)c4F)c3cc2NC(=O)/C=C/CN2CCOCC2)C1
≥ 8.00

* * *

# TARGET ENTITY: HER2 YVMA (Homo sapiens, UniProt P04626, INS775YVMA)
# Sequence (P04626 with tags, fused parts or gaps INS775YVMA): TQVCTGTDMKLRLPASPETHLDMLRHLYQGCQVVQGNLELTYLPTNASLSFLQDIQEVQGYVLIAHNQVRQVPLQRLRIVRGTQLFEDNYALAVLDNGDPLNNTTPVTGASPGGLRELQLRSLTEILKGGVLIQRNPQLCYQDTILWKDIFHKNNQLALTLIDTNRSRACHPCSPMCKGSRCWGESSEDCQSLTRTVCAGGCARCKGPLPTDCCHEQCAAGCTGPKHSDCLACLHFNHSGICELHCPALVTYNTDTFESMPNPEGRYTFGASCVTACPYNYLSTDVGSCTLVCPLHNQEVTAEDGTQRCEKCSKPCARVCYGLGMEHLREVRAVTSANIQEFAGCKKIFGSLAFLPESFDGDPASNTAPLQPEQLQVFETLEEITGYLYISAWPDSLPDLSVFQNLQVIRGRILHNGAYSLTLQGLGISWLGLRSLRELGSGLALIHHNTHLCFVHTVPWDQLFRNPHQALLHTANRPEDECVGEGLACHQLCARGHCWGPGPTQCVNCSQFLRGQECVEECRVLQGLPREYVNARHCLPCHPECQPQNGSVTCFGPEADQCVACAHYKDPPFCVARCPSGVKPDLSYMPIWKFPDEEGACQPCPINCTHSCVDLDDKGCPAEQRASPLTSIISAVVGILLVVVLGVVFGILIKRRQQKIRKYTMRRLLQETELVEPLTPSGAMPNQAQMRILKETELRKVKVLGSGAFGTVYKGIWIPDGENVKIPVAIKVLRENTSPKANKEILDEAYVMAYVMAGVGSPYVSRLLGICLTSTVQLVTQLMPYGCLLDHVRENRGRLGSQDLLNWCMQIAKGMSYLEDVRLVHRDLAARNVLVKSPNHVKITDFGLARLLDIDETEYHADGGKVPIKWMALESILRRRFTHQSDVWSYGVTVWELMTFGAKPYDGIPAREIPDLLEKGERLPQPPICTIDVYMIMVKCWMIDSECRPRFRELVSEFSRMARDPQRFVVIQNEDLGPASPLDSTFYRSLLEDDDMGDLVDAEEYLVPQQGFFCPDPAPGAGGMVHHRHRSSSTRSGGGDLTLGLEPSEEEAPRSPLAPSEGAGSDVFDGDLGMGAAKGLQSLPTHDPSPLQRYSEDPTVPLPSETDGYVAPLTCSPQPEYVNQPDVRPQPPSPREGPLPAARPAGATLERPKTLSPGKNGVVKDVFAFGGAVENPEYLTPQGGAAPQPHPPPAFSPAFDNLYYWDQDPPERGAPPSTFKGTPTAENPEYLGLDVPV
# PROTOCOL: BaF3 cell proliferation assay (CellTiterGlo), HER2 YVMA
# CONDITIONS: Table A; BaF3 cells, 3 days
pIC50: −log10 of the molar value.
# key: entry, value: pIC50

C=C(C)C(=O)Nc1cc2c(Nc3cccc(Cl)c3F)ncnc2cc1C#C[C@@]1(C)CCN(C)C1; < 6.30

Item C=CC(=O)Nc1cc2c(Nc3cccc(Cl)c3F)ncnc2cc1C#C[C@]12C[C@H]1CN(C)C2 : provide pIC50
6.30 to 7.00

Please indicate pIC50 recorded for C=CC(=O)Nc1cc2c(Nc3cccc(Cl)c3F)ncnc2cc1C#C[C@@]1(F)CCN(C)C1
< 6.30

Please look at this compound and report its pIC50: C=CC(=O)Nc1cc2c(Nc3ccc(OCc4cccc(F)c4)c(Cl)c3)ncnc2cc1C#CC1(C)CCOC1 (centres unmarked)
6.30 to 7.00

Please supply the value of reported pIC50 for the item C=CC(=O)Nc1cc2c(Nc3cccc(Cl)c3F)ncnc2cc1C#CC1(C)CCN(CC(F)(F)F)C1 (centres unmarked)
< 6.30

* * *

Items are presented alongside their recorded IC50.
# TARGET ENTITY: EGFR wt (Homo sapiens, UniProt P00533)
# Construct: expressed in transfected cells; host or cells: BaF3 (murine pro-B) cells, retroviral transduction with pMXs-IRES-Blasticidin
# Sequence (P00533 25-1210): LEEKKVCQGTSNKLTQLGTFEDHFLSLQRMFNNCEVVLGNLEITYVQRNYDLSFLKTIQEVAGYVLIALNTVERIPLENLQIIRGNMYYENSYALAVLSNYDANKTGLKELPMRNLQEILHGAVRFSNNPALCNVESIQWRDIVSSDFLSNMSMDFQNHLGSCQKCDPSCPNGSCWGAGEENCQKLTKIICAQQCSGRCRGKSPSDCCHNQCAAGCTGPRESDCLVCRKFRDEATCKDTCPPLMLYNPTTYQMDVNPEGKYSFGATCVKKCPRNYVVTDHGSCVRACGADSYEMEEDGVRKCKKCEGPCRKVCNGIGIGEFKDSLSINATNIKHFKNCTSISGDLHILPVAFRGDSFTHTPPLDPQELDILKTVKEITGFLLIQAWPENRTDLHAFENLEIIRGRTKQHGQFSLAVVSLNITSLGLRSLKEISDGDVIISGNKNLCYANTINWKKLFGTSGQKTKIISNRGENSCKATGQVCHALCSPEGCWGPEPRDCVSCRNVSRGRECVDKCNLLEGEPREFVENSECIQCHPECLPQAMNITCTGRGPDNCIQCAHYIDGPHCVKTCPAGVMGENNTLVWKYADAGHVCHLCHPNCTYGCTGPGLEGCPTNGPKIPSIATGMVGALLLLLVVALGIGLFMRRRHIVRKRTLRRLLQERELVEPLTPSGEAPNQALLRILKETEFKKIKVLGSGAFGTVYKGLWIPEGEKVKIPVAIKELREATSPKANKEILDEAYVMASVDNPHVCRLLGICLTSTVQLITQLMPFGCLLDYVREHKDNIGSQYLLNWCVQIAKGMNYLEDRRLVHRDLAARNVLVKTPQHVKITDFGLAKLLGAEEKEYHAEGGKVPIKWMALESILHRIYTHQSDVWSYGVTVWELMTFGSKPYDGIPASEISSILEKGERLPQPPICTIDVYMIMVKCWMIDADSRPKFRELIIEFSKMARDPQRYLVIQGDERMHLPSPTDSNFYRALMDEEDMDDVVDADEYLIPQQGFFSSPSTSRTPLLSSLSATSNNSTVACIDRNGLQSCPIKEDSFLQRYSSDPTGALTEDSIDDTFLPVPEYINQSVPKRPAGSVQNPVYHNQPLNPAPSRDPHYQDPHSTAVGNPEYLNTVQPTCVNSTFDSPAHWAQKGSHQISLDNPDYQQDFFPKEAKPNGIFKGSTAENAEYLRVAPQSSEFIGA
# PROTOCOL: BaF3 cell proliferation assay (CellTiterGlo), EGFR wt
# Format: cell-based
# CONDITIONS: Table A; BaF3 cells, 3 days
# Procedure: Retroviral Production: EGFR mutants were subcloned into pMXs-IRES-Blasticidin (RTV-016, Cell Biolabs, San Diego, CA). […] Assay for cell proliferation: BaF3 cell lines were resuspended at 1.3E5 c/ml in RPMI containing 10% Heat Inactivated FBS, 2% L-glutamine and 1% Pen/Strep and dispensed in triplicate (17.5E4 c/well) into 96 well plates. […] The number of viable cells was determined and normalized to vehicle-treated controls. […] EC50 values were determined with the same application.

Solved cases below.
CC(C)/C=C/C(=O)Nc1cc2c(Nc3cccc(Cl)c3F)ncnc2cc1C#C[C@@]1(C)CCN(C)C1; 50 to 100 nM
C=CC(=O)Nc1cc2c(Nc3cccc(Cl)c3F)ncnc2cc1C#C[C@]12C[C@H]1CN(C)C2; 50 to 100 nM
C=CC(=O)Nc1cc2c(Nc3cccc(Cl)c3F)ncnc2cc1C#C[C@@]1(F)CCN(C)C1; 100 to 500 nM
C=CC(=O)Nc1cc2c(Nc3ccc(O)c(Cl)c3)ncnc2cc1C#C[C@@H]1[C@H]2CN(C)C[C@@H]12; 50 to 100 nM
CN1CC[C@](C)(C#Cc2cc3ncnc(Nc4cccc(Cl)c4F)c3cc2NC(=O)CC#N)C1; > 500 nM
C=CC(=O)Nc1cc2c(Nc3ccc(OCc4ccccn4)c(Cl)c3)ncnc2cc1C#CC12CCC(CC1)N2C; > 500 nM

Name the recorded IC50 of C=CC(=O)Nc1cc2c(Nc3ccc(F)c(Cl)c3F)ncnc2cc1C#CC1(C)CCN(C)C1 (centres unmarked) , assay system EGFR wt (Homo sapiens, UniProt P00533).
≤ 50 nM

Under EGFR wt (Homo sapiens, UniProt P00533), report IC50 for CNC(=O)Nc1cc2c(Nc3cccc(Cl)c3F)ncnc2cc1C#CC1(C)CCN(C)C1 (centres unmarked)
≤ 50 nM

For EGFR wt (Homo sapiens, UniProt P00533), give IC50 of the listed compound: CC#CC(=O)Nc1cc2c(Nc3ccc(OCc4ccccn4)c(Cl)c3)ncnc2cc1C#CC1(C)CCN(C)C1 (centres unmarked)
50 to 100 nM

Answer briefly: IC50 recorded on EGFR wt (Homo sapiens, UniProt P00533) for C=CC(=O)Nc1cc2c(Nc3cccc(Cl)c3F)ncnc2cc1C#C[C@@]1(OC)CCN(C)C1
≤ 50 nM

Please report the measured IC50 for C=CC(=O)Nc1cc2c(Nc3cccc(Cl)c3F)ncnc2cc1C#CC1(C)CCN(C2COC2)C1 (centres unmarked) tested on EGFR wt (Homo sapiens, UniProt P00533).
100 to 500 nM

Look up EGFR wt (Homo sapiens, UniProt P00533) data: IC50 of C=CC(=O)Nc1cc2c(Nc3ccc(OCc4ccccn4)c(Cl)c3)ncnc2cc1C#C[C@@]1(C)CCCN1C , then report it.
> 500 nM
